# Test system: MDA-MB-231
# protocol.text: NCI tumour cell line growth inhibition, 48 h
The source made the active and inactive calls. No stated cut-off is given here; in the data, active = GI50 up to about 1.1 µM and inactive = higher.
Outcomes you can answer with include only these: true (active), false (inactive)

Observe how each entry below is paired with its result.
>  <molecule>
CCOC(=O)c1c(SC(=O)C(C)(C)Oc2ccc(Cl)cc2)n(-c2ccccc2)c(=S)n(-c2ccccc2)c1=O

>  <label.class>
false

$$$$
>  <molecule>
COC(=O)Cc1cc(O)c2c(c1O)C(=O)c1ccccc1C2=O

>  <label.class>
false

$$$$
>  <molecule>
O=[N+]([O-])c1ccc2[nH]ncc2c1Cl

>  <label.class>
true

$$$$
>  <molecule>
CCc1cn2c(/C=N/N=C(N)N)c(-c3cc(C)c(Cl)cc3Cl)nc2s1

>  <label.class>
true

$$$$
>  <molecule>
CC(C)(C)c1ccc(/C=N/NC(=O)CSCC(=O)N/N=C/c2ccc(C(C)(C)C)cc2)cc1

>  <label.class>
true

$$$$
>  <molecule>
NC(=O)c1cccc(OCC(O)CO)c1 (centres undefined)

>  <label.class>
false

$$$$
>  <molecule>
NC1=CN(Cc2ccccc2)C2=N/C(=C\c3ccccc3O)C(=O)N12

>  <label.class>
false

$$$$
>  <molecule>
COc1c(O)cc(/C=C/c2cc(O)cc3c2[C@@]2(C(=O)O3)c3c(O)cc(O)cc3OC2c2cccc(O)c2)cc1O (some centres undefined)

>  <label.class>
false

$$$$

Now look at this entry.
Record lookup: outcome of this test for CC1(C)CC[C@]2(C(=O)O)CC[C@]3(C)C(=CC[C@@H]4[C@@]5(C)CC[C@H](OC6OC(CO)C(O)C(O)C6O)C(C)(C)[C@@H]5CC[C@]43C)[C@@H]2C1 (some centres undefined) ?
false

* * *

I'd appreciate it if you could supply GI50 values for the items below.
# Test system: SK-OV-3
# protocol.text: NCI tumour cell line growth inhibition, 48 h
The source made the active and inactive calls. No stated cut-off is given here; in the data, active = GI50 up to about 1.1 µM and inactive = higher.

Would you please look over these solved cases?
>  <structure.smiles.string>
ON(CCc1ccncc1)Cc1ccccc1

>  <assay.system>
SK-OV-3

>  <GI50>
> 100 µM (inactive)

$$$$
>  <structure.smiles.string>
Cc1ccc(NCc2nnc3c(-c4ccccc4)nc4ccccc4n23)cc1

>  <assay.system>
SK-OV-3

>  <GI50>
40.6 µM (inactive)

$$$$

Okay, next one:
Lab note: need GI50 with SK-OV-3 for entry "CCc1cn2c(/C=N/N=C(N)N)c(-c3cc(C)c(Cl)cc3Cl)nc2s1" , please look it up.
1.7 µM (inactive)

* * *

# System: K562
# protocol.text: NCI tumour cell line growth inhibition, 48 h
Calls of active or inactive are those of the source. No stated cut-off is given here; in the data, active = GI50 up to about 1.1 µM and inactive = higher.
I would appreciate it if you answered using one of these outcomes: active, inactive

Solved cases below.
>  <molecule>
O=C(O)c1[nH]c(C(=O)O)c(CC(F)(F)C(F)(F)C(F)(F)F)c1CC(F)(F)C(F)(F)C(F)(F)F

>  <label.class>
inactive

$$$$
>  <molecule>
O=C1C=CC(=O)C(N(CCO)CCO)=C1.O=C1C=CC2(O)OCCN(CCO)C2=C1

>  <label.class>
inactive

$$$$
>  <molecule>
COc1ccc(-c2cc(-c3ccccc3)nc3c2CC(=O)Nc2ccccc2-3)cc1OC

>  <label.class>
inactive

$$$$
>  <molecule>
OC(CCNCc1ccccc1)c1ccc2ccccc2c1 (configuration not stated)

>  <label.class>
inactive

$$$$
>  <molecule>
CCCCCC(=O)Cc1cc(OC)cc2c1C(=O)Oc1cc(O)c(C(=O)O)c(CC(=O)CCCCC)c1O2

>  <label.class>
inactive

$$$$

Just curious, what result did "COc1ccccc1Nc1nc2c([nH]1)c(=O)n(C)c(=O)n2C" get here?
inactive

Same again, this time with "CN1CCN(CCCCN2c3ccccc3Sc3ccc(C(=O)c4ccccc4)cc32)CC1"
inactive

Param item: "Nc1nnc2c(-c3ccccc3)n[nH]c2n1"
inactive

And COP(=O)(OC)C1=c2c(C)noc2=C2C=COC2C1=O (configuration not stated) ?
inactive

Also Cc1cccc2c1N(C(=O)/C=C\C(=O)O)C(c1c(C)[nH]c3ccccc13)C2 (configuration not stated) , if possible.
inactive

Now the same for CC(C)(C)c1ccc2c(c1)C(O)(c1ccccc1)c1cc(C(C)(C)C)ccc1C2(O)C(F)(F)F (configuration not stated)
inactive

Further, for CC(=O)NC(Cc1ccccc1)C(=S)N1CCCC1 (configuration not stated) ?
inactive

How about O=C(O)C1CCCCC1c1c2ccc(=O)c(O)c-2oc2c(O)c(O)ccc12 (configuration not stated) ?
inactive

Same again, this time with CC(CN1CC(=O)NC(=O)C1)N1CC(=O)NC(=O)C1 (configuration not stated)
inactive

// query: "CC(C)=CCC/C(=C\CC/C(=C\CCc1ccoc1)C(=O)O)C(=O)O"
inactive

Continue with COCOC1CCCC[C@@]1(OCCOCCO[C@@]1(c2ccccc2)CCCC[C@H]1OCOC)c1ccccc1 (some centres not stated)
inactive

# iterate: N#C[C@H]1C(=O)C(c2nc3ccccc3[nH]2)S[C@H]1c1ccccc1 (some centres not stated)
inactive

Here is the next molecule: CNC(=O)NCCCC(NC(C)=O)C(=O)NCc1ccccc1 (configuration not stated)
inactive

Lookup "CCCNC(=O)Cn1c(-c2ccccc2)cc2ccccc21"
inactive

Param item: "O=C(Nc1ccc2[nH]c3c(-c4ccccc4)nccc3c2c1)c1ccccc1[N+](=O)[O-]"
inactive

Let us now turn to "COc1ccc(/C=N/Nc2nc(=S)[nH]c3[nH]ncc23)cc1"
inactive

And for C=C1CC2[C@H](C)C(=O)CCC2(C)C2=C1C1CCC(C(C)CCC(=C)C(C)C(=O)O)C1(C)CC2=O (some centres not stated) ?
inactive

Also "COc1cc2cc[n+]3c4cc(OC)c(OC)cc4c(C)cc3c2cc1OC" ?
inactive

* * *

# System: UO-31
# protocol.text: NCI tumour cell line growth inhibition, 48 h
Calls of active or inactive are those of the source. Cut-off read from the data, not from the text of the source: active = GI50 up to about 1.1 µM and inactive = higher. Where a SMILES comes first, the peptide text is derived from it. The star is where a group is joined. Boc = CC(C)(C)OC(=O)*; tBu = CC(C)(C)*
Output constraint: value belongs to active, inactive

>  <compound>
SC1CCCN(Cc2ccccc2)C1 (stereo not drawn)

>  <label.class>
inactive

$$$$
>  <compound>
Fc1cccc2cc3ccc4cccc5ccc(c12)c3c45

>  <label.class>
inactive

$$$$
>  <compound>
CC(c1ccccc1)N1CCN(C(C)c2ccccc2)CC1 (stereo not drawn)

>  <label.class>
inactive

$$$$
>  <compound>
CO/N=[N+](\[O-])NC(C)C

>  <label.class>
inactive

$$$$
>  <compound>
Cc1cc(N(CCC#N)CCC#N)ccc1/C=C1\N=C(c2cc([N+](=O)[O-])ccc2Cl)N(c2cccc(Cl)c2)C1=O

>  <label.class>
inactive

$$$$

Write down the call the test reported for this compound. Item: "N#C[C@H](C(=O)c1ccccc1F)c1nc2ccccc2s1"
inactive

Record: "CN(C)CCCNc1ccnc2cc([N+](=O)[O-])ccc12"
inactive

And then "O=C(NCCO)c1c(O)c2ccccc2[nH]c1=O" , what is it?
inactive

Subsequent entry: "CCCCSC1=N/C(=C\c2ccco2)C(Cl)=N1"
inactive

Same again, this time with C=C=C(CC)C(C(=O)OC)N(CC)CC (stereo not drawn)
inactive

Follow-up item: CC(=O)c1c2c(cc3c1CC1(C3)Cc3ccc4c(c3C1=O)CCC4)CCC2 (stereo not drawn)
inactive

Now consider COc1c(O)cc(/C=C/c2cc(O)cc3c2[C@@]2(C(=O)O3)c3c(O)cc(O)cc3OC2c2cccc(O)c2)cc1O (stereo partly drawn) and answer again.
inactive

Consider next the compound CC(OC(C)(C)C)C(NC(=O)C(N)CCCCNC(=O)OC(C)(C)C)C(=O)NC(Cc1ccccc1)C(=O)O (stereo not drawn) (H-Lys(Boc)-Thr(tBu)-Phe-OH; configuration not given here) in the same way.
inactive

Proceed to CC1(C)CC[C@]2(C(=O)O)CC[C@]3(C)C(=CC[C@@H]4[C@@]5(C)CC[C@H](OC6OC(CO)C(O)C(O)C6O)C(C)(C)[C@@H]5CC[C@]43C)[C@@H]2C1 (stereo partly drawn)
inactive

Okay, and Cc1ccc(/N=N/c2c(C)c(C#N)c(=S)n(C3OC(CO)C(O)C(O)C3O)c2-c2ccccc2)cc1 (stereo not drawn) ?
inactive

Try the compound "C/C(=N\Nc1nc2cccnc2s1)c1ccccn1"
active

Follow-up item: "ON(CCc1ccncc1)Cc1ccccc1"
inactive

Try "c1ccc2c(c1)Nc1cccc3c1c-2nc1cc2ccccc2cc13" next.
inactive

And what about the compound O=[N+]([O-])c1ccc(Cl)cc1C1SCc2nc3ccccc3n21 (stereo not drawn) ?
inactive

Entry to check: "CCOC(=O)c1cn2c(n1)sc1cc(C)c(C)cc12"
inactive

Same lookup for COP(=O)(OC)C1=c2c(C)noc2=C2C=COC2C1=O (stereo not drawn) , please.
inactive

Input C/C(=C\CNc1ncnc2c1ncn2C1CCCCO1)COP(=O)(O)O (stereo not drawn)
inactive

Follow-up entry: "CN1CCN(C(=S)N(C)C(=O)c2ccco2)CC1"
inactive
